- Tested on: Candida albicans clinical strains
- Measurement Protocol: MIC, clinical yeast strains
- Type: cell-based
- Parameters: unit: μg/ml
- Test Conditions: Candida albicans clinical yeast strain 4
Square brackets hold non-standard residues; d marks the D form. Peptide text beside a SMILES is read from it.
# key: entry, value: Minimum inhibitory concentration
Give the value as a plain number.

Take a look at these entries with their results.
compound="CC(C)C[C@@H](NC(=O)[C@H](N)CCCCN)C(=O)N[C@H](CCCCN)C(=O)N[C@H](Cc1c[nH]c2ccccc12)C(=O)N[C@H](Cc1ccccc1)C(=O)N[C@H](Cc1c[nH]c2ccccc12)C(=O)N[C@H](CC(C)C)C(=O)N[C@H](Cc1ccccc1)C(=O)N[C@H](CCCCN)C(=O)N[C@H](CCCCN)C(=O)N[C@H](CCCNC(=N)N)C(=O)O [Chain311D] (H-[dK][dL][dK][dW][dF][dW][dL][dF][dK][dK][dR]-OH)" readout_kind="Minimum inhibitory concentration" assay_result=16
compound="CC[C@@H](C)[C@@H](NC(=O)[C@@H](Cc1c[nH]c2ccccc12)NC(=O)[C@H](N)CCCCN)C(=O)N[C@@H](C(=O)N[C@H](Cc1c[nH]c2ccccc12)C(=O)N[C@H](CCCNC(=N)N)C(=O)N[C@H](Cc1c[nH]c2ccccc12)C(=O)N[C@H](CCCNC(=N)N)C(=O)N[C@H](Cc1ccccc1)C(=O)N[C@H](CCCCN)C(=O)N[C@H](CCCNC(=N)N)C(=O)O)C(C)C [Chain201D] (H-[dK][dW][dI][dV][dW][dR][dW][dR][dF][dK][dR]-OH)" readout_kind="Minimum inhibitory concentration" assay_result=16
compound="CC(C)C[C@@H](NC(=O)[C@@H](CCCCN)NC(=O)[C@@H](Cc1c[nH]c2ccccc12)NC(=O)[C@@H](CCCCN)NC(=O)[C@@H](C)NC(=O)[C@@H](Cc1c[nH]cn1)NC(=O)[C@@H](CC(C)C)NC(=O)[C@@H](CCCNC(=N)N)NC(=O)[C@@H](Cc1c[nH]c2ccccc12)NC(=O)[C@H](N)Cc1c[nH]c2ccccc12)C(=O)N[C@H](Cc1c[nH]c2ccccc12)C(=O)O [Chain109D] (H-[dW][dW][dR][dL][dH][dA][dK][dW][dK][dL][dW]-OH)" readout_kind="Minimum inhibitory concentration" assay_result=128
compound="CC(C)C[C@@H](NC(=O)[C@H](N)CCCNC(=N)N)C(=O)N[C@H](CCCCN)C(=O)N[C@H](CCCNC(=N)N)C(=O)N[C@H](Cc1c[nH]c2ccccc12)C(=O)N[C@H](CCCNC(=N)N)C(=O)N[C@H](CC(C)C)C(=O)N[C@H](Cc1ccccc1)C(=O)N[C@H](CCCNC(=N)N)C(=O)N[C@H](CCCCN)C(=O)N[C@H](CCCNC(=N)N)C(=O)O [Chain306D] (H-[dR][dL][dK][dR][dW][dR][dL][dF][dR][dK][dR]-OH)" readout_kind="Minimum inhibitory concentration" assay_result=16

Could you now look at the following compound, please?
Would you kindly share the measured Minimum inhibitory concentration for `C[C@@H]1[C@H](O)[C@@H](C)/C=C/C=C/C=C/C=C/C=C/C=C/C=C/[C@H](O[C@@H]2O[C@H](C)[C@@H](O)[C@H](N)[C@@H]2O)C[C@@H]2O[C@](O)(C[C@@H](O)C[C@@H](O)[C@H](O)CC[C@@H](O)C[C@@H](O)CC(=O)O[C@H]1C)C[C@H](O)[C@H]2C(=O)O` ?
2
